Target: PRMT5/MEP50 (Homo sapiens)
Sequence (O14744 2-637): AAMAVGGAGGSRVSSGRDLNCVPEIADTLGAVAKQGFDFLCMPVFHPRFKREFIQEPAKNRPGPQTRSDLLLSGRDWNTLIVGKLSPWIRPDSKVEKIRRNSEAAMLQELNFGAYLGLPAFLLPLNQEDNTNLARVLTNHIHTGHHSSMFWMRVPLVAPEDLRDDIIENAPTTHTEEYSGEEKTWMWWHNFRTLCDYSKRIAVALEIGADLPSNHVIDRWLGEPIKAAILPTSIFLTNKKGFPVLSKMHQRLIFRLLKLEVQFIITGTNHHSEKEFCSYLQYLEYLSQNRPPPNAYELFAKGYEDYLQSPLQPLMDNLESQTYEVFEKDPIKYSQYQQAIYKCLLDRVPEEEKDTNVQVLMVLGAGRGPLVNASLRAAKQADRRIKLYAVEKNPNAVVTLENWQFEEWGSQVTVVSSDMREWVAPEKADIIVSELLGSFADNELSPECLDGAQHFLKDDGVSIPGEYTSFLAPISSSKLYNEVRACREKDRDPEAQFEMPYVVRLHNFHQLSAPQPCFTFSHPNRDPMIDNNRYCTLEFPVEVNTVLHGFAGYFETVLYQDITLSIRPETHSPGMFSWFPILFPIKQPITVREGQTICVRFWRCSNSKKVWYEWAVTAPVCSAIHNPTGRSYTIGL
Sequence (Q9BQA1 3-342 partner limits assumed): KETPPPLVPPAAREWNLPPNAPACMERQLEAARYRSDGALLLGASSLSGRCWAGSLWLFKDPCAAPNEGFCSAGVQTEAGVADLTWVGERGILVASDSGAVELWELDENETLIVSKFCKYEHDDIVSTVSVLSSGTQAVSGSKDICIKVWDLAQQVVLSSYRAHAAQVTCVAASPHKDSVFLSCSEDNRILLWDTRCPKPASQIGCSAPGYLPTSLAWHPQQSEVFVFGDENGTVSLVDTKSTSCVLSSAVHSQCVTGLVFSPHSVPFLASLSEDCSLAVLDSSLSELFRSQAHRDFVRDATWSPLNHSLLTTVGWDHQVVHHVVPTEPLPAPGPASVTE
Assay: Histone methyltransferase enzymatic assay, PRMT5/MEP50
Conditions: enzyme conc. 100 nM
readout_label: IC50

Request: Tell me the measured IC50 of CCN(CCN(C)C)C(=O)CNCc1cc(C(=O)O)ccn1 , please.
Result: > 100 µM

* * *

Assay: Cytotoxicity in HBV-infected PHH (50% decrease in GAPDH or RPLP0)
Assay type: cell-based, human
Details: human, HBV-infected primary human hepatocytes (PHH); the seven PHH donors tested
readout_label: CC50

Request: Tell me the measured CC50 of CCOC(=O)c1ccnc(CNCC(=O)N(CC)CCN(C)C)c1 , please.
Result: > 10 µM
